Entries annotated with measured IC50
Molecular target: human P2X3 receptor (Homo sapiens (Human))
Assay: P2X3 receptor inhibition, ATP-evoked Fluo-3 calcium fluorescence (FDSS 3000)
Conditions: C6BU-1 cell transfected with human P2X3 receptor gene; ATP-evoked Fluo-3 fluorescence
Give the quantity in µM, number only.

Example cases with answers are listed next.
COC(=O)n1nc(C(C)(C)C)c2c1C(=O)N(c1ccc(Br)cc1)C2c1ccccc1OC (centres unmarked) : 0.082
COc1ccccc1C1C(C(=O)C(C)(C)C)=C(O)C(=O)N1c1ccc(-c2ccoc2)nc1 (centres unmarked) : 0.756
COc1ccccc1C1C(C(=O)C(C)C)=C(O)C(=O)N1c1ccc2sccc2c1 (centres unmarked) : 0.347
Cc1nc(-c2ccc(N3C(=O)C(O)=C(C(=O)C(C)C)C3c3ccccc3COC(C)C)cc2)no1 (centres unmarked) : 0.062

input: So what's the measured IC50 for this one? CCOc1ncccc1C1C(C(=O)CC(C)C)=C(O)C(=O)N1c1ccc(-c2ccsc2)cc1 (centres unmarked)
output: 0.035

input: // returns reported IC50 for input COCCOc1ccccc1C1c2c(C(C)(C)C)n[nH]c2C(=O)N1c1ccc(-c2ccoc2)cc1 (centres unmarked)
output: 0.01

input: Dear colleague, I am looking for the recorded IC50 of the following compound: COc1ccccc1C1C(C(=O)CC(C)C)=C(O)C(=O)N1c1ccc(C2=NCCS2)cc1 (centres unmarked)
output: 0.31

input: What does the record list as IC50 for COCOc1ccccc1C1C(C(=O)C(C)C)=C(O)C(=O)N1c1ccc(-c2ccoc2)cc1 (centres unmarked) ?
output: 0.024

###

Molecular target: human P2X3 receptor (Homo sapiens (Human), UniProt P56373)
Sequence (P56373 whole entry): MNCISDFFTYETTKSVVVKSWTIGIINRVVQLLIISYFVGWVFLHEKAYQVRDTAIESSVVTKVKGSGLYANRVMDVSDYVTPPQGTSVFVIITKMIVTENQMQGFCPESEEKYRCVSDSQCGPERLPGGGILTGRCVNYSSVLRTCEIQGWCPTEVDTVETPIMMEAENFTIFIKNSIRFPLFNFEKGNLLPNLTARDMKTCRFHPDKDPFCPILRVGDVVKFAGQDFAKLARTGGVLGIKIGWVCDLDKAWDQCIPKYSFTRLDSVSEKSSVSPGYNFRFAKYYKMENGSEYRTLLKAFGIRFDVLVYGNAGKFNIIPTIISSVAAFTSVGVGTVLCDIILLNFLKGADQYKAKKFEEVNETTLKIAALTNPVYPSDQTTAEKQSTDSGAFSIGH
Test: P2X3 receptor inhibition, ATP-evoked Fluo-3 calcium fluorescence (FDSS 3000)
Assay type: cell-based
Conditions: C6BU-1 cell transfected with human P2X3 receptor gene; ATP-evoked Fluo-3 fluorescence
Measurement kind: IC50 (µM)
Report only the number, with the unit µM understood.

Please review the entries below; each comes with its answer.
COCCOc1cccc(C2C(C(=O)C(C)C)=C(O)C(=O)N2c2ccc(-c3ccsc3)cc2)c1 (stereo not shown) : 0.669
COCCOc1ccccc1C1c2c(C(C)(C)C)n[nH]c2C(=O)N1c1ccc(-c2noc(C)n2)cc1 (stereo not shown) : 0.015
Cc1ccc(-c2ccc(N3C(=O)C(O)=C(C(=O)CC(C)C)C3c3ccccc3OC(F)(F)F)cc2)o1 (stereo not shown) : 0.04

# ---- query compound ----
input: Recorded IC50 of COCCCOc1ccccc1C1C(C(=O)CC(C)C)=C(O)C(=O)N1c1ccc(-c2noc(C)n2)cc1 (stereo not shown) , please.
output: 0.104

###

Target: human P2X3 receptor (Homo sapiens (Human))
Assay: P2X3 receptor inhibition, ATP-evoked Fluo-3 calcium fluorescence (FDSS 3000)
Settings: C6BU-1 cell transfected with human P2X3 receptor gene; ATP-evoked Fluo-3 fluorescence
pIC50: −log10 of the molar value.
Please use Criterion met whenever pIC50 is not below 7, and Criterion not met whenever it is.

input: hey, is pIC50 for this one >= 7? COCOc1ccccc1C1C(C(=O)CC(C)C)=C(O)C(=O)N1c1ccc(-c2ccc(C)o2)cc1 (stereo not drawn)
output: Criterion met

input: pIC50 >= 7 for CSc1ccccc1C1C(C(=O)C(C)C)=C(O)C(=O)N1c1ccc(-c2csc(C)c2)cc1 (stereo not drawn) ?
output: Criterion met

input: Is reported pIC50 greater than or equal to 7 here: CO/N=C(/C)c1ccc(N2C(=O)c3[nH]nc(C(C)(C)C)c3C2c2ccccc2OC)cc1 (stereo not drawn)
output: Criterion not met

input: Hello, I need to know if COc1ccc(-c2n[nH]c3c2C(C2CCCCC2)N(Cc2cc(C)on2)C3=O)cc1 (stereo not drawn) has measured pIC50 not below 7. Thanks!
output: Criterion not met

input: // inclusive: pIC50 at least 7? input: CCOCOc1ccccc1C1C(C(=O)C(C)C)=C(O)C(=O)N1c1ccc(-c2noc(C)n2)cc1 (stereo not drawn)
output: Criterion met

input: Identify whether the reported pIC50 of the following compound is 7 or greater: COc1ccccc1C1C(C(=O)C(C)C)=C(O)C(=O)N1c1ccc(-c2ccsc2)c(N)c1 (stereo not drawn)
output: Criterion not met

input: Threshold query (pIC50 >= 7) on Cc1nc(-c2ccc(N3C(=O)C(O)=C(S(=O)(=O)c4ccccc4)C3C3CCCCC3)cc2)no1 (stereo not drawn)
output: Criterion not met
